// data source = PubChem BioAssay AID1963960

# Tested on: MDA-MB-468 spheroids with HUVEC/MSC, viability
# experimental-protocol: Anticancer human tumor MDA-MB-468 cell line growth inhibition [PI3K];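 further: spheroids exposed to agents for seven days before readout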
# recorded-conditions: curve of first compound; second compound 0.1 µM
pIC50: −log10 of the molar value.
experimental-endpoint: pIC50

CC1(C)CCC(CN2CCN(c3ccc(C(=O)NS(=O)(=O)c4ccc(NCC5CCOCC5)c([N+](=O)[O-])c4)c(Oc4cnc5[nH]ccc5c4)c3)CC2)=C(c2ccc(Cl)cc2)C1 + CC(Nc1ncnc2nc[nH]c12)c1cc2cccc(Cl)c2c(=O)n1-c1ccccc1: 5.34
CC(=O)c1c(C)c2cnc(Nc3ccc(N4CCNCC4)cn3)nc2n(C2CCCC2)c1=O + Cc1nc(NC(=O)N2CCCC2C(N)=O)sc1-c1ccnc(C(C)(C)C(F)(F)F)c1: < 7.00
CCN1CCN(Cc2ccc(Nc3ncc(F)c(-c4cc(F)c5nc(C)n(C(C)C)c5c4)n3)nc2)CC1 + CC(Nc1ccc2c(c1)OCCn1cc(N3C(=O)OCC3C(F)F)nc1-2)C(N)=O: < 6.00
CC(=O)c1c(C)c2cnc(Nc3ccc(N4CCNCC4)cn3)nc2n(C2CCCC2)c1=O + CC(Nc1ncnc2nc[nH]c12)c1cc2cccc(Cl)c2c(=O)n1-c1ccccc1: < 7.00
C=CC(=O)N1CCN(c2nc(=O)n(-c3c(C)ccnc3C(C)C)c3nc(-c4c(O)cccc4F)c(F)cc23)C(C)C1 (stereo not drawn) + CC(Nc1ncnc2nc[nH]c12)c1cc2cccc(Cl)c2c(=O)n1-c1ccccc1: < 5.00
CCCS(=O)(=O)Nc1ccc(F)c(C(=O)c2c[nH]c3ncc(-c4ccc(Cl)cc4)cc23)c1F + COc1c(OCCCN2CCOCC2)ccc2c3n(c(=NC(=O)c4cnc(N)nc4)nc12)CCN3: 5.68

Query :: Form field: reported pIC50 of CC(=O)c1c(C)c2cnc(Nc3ccc(N4CCNCC4)cn3)nc2n(C2CCCC2)c1=O + CC(Nc1ccc2c(c1)OCCn1cc(N3C(=O)OCC3C(F)F)nc1-2)C(N)=O
Result :: < 7.00

Query :: Note, next up: Cn1nccc1Nc1nccc(-c2ccn(C(CO)c3ccc(Cl)c(F)c3)c(=O)c2)n1 (stereo not drawn) + CC(Nc1ncnc2nc[nH]c12)c1cc2cccc(Cl)c2c(=O)n1-c1ccccc1
Result :: < 5.00

Query :: Note, next up: CC(=O)c1c(C)c2cnc(Nc3ccc(N4CCNCC4)cn3)nc2n(C2CCCC2)c1=O + COc1c(OCCCN2CCOCC2)ccc2c3n(c(=NC(=O)c4cnc(N)nc4)nc12)CCN3
Result :: < 7.00

Query :: Note, next up: Cn1ncnc1[C@H]1c2n[nH]c(=O)c3cc(F)cc(c23)N[C@@H]1c1ccc(F)cc1 + Cc1nc(NC(=O)N2CCCC2C(N)=O)sc1-c1ccnc(C(C)(C)C(F)(F)F)c1
Result :: 7.18

Query :: Note, next up: CC1(C)CCC(Nc2ncc(C(F)(F)F)c(-c3c[nH]c4c(P(C)(C)=O)c(C#N)ccc34)n2)CN1 (stereo not drawn) + Cc1nc(NC(=O)N2CCCC2C(N)=O)sc1-c1ccnc(C(C)(C)C(F)(F)F)c1
Result :: > 7.50

Query :: Note, next up: CC(C)NCC(C(=O)N1CCN(c2ncnc3c2C(C)CC3O)CC1)c1ccc(Cl)cc1 (stereo not drawn) + COc1c(OCCCN2CCOCC2)ccc2c3n(c(=NC(=O)c4cnc(N)nc4)nc12)CCN3
Result :: 6.66

Query :: Note, next up: CC(Cn1ccc(-c2ccc(C#N)c(Cl)c2)n1)NC(=O)c1cc(C(C)O)[nH]n1 (stereo not drawn) + Cc1nc(NC(=O)N2CCCC2C(N)=O)sc1-c1ccnc(C(C)(C)C(F)(F)F)c1
Result :: < 5.00
